- protocol.text: 5' untranslated region of α-synuclein, MLPCN primary screen (AID 1813);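 further: H4 neuroglioblastoma cells stably carrying SNCA 5'UTR luciferase fusion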
- conditions: alpha-synuclein 5'UTR reporter, inhibitor activity; tested at 7.5 µM
The whole screen tested about 300,000 compounds, of which about 2,500 (0.83%) were called active. No stated cut-off is given here; in the data, active means inhibition above about 60%; inconclusive means no clear call, values can overlap the other calls; inactive means below that. The sample holds actives, similar compounds and a random draw of the others, so the mix is not that of the screen.
Please answer using one outcome listed in Yes = active, No = inactive

Solved entries (count: 6):
molecule	class
CCn1c(CNC(=O)c2cc(OC)c(OC)c(OC)c2)cc2cc(C)ccc21	No
CCC(=O)NC(Nc1nc2ccc(C)cc2s1)(C(=O)OC)C(F)(F)F (stereo not drawn)	No
Cc1cc(OCc2ccc(C(=O)Nc3ccc(C(=O)O)cc3)o2)ccc1Cl	No
O=C(c1ccc(F)cc1)N1CCC(n2nnc3ccccc32)CC1	No
O=C(CCCO)N/N=C/c1cc(Br)ccc1O	No
Cc1cc(NC(=O)C(C)N2C(=O)c3ccccc3S2(=O)=O)no1 (stereo not drawn)	No

Ask: // outcome(item) with item = `COc1cc(OC)cc(C(=O)NC2CCN(C(=O)N3c4ccccc4Sc4ccccc43)CC2)c1`
Result: No

Ask: How was CC(CNS(=O)(=O)c1ccc(Br)cc1)CN(C)C (stereo not drawn) classified in this test?
Result: No

Ask: GET /call?item= CCOC(=O)c1sc(C)c2c1NC(C)(c1cccc3ccccc13)NC2=O (stereo not drawn) returns the recorded outcome of this test.
Result: No

Ask: Short answer needed: outcome of this test for `CCOc1ccc2nc(NC(=O)c3cc([N+](=O)[O-])ccc3N3CCOCC3)sc2c1` ?
Result: No

Ask: Outcome? `COc1ccc(/C=C/c2noc(-c3ccccc3OC(C)=O)n2)cc1`
Result: No

Ask: Tell me the recorded outcome of this test for `N#Cc1cnn2cc(CCN3CCOCC3)c(-c3ccc(F)cc3)nc12` .
Result: No
